# Test system: Haemophilus Influenzae
# method-summary: H. influenzae Activity
# Type: cell-based
# condition-info: strain ATCC49766
Reported H. influenzae Activity, strain ATCC49766 values follow for various compounds
Answer field: number only, no words.

[
  {
    "compound": "CCC1OC(=O)CC(O)C(C)C(OC2OC(C)C(O)C(N(C)C)C2O)C(CC=O)CC(C)C(=NOCCCOc2ccc3ncccc3c2)C=CC(C)=CC1CO (stereo not drawn)",
    "H. influenzae Activity, strain ATCC49766": 6.25
  },
  {
    "compound": "CC[C@H]1OC(=O)[C@H](C)[C@@H](O[C@H]2C[C@@](C)(OC)[C@@H](O)[C@H](C)O2)[C@H](C)[C@@H](O[C@@H]2O[C@H](C)C[C@H](N(C)C)[C@H]2O)[C@](C)(O)C[C@@H](C)C(=O)[C@H](C)[C@@H](O)[C@]1(C)O [Ery A, erythromycin A, reference compound]",
    "H. influenzae Activity, strain ATCC49766": 6.25
  }
]

For the next question, use this compound.
Ask: // fetch H. influenzae Activity, strain ATCC49766 for CCC1OC(=O)CC(O)C(C)C(OC2OC(C)C(O)C(N(C)C)C2O)C(CC=O)CC(C)C(=NOCCCCc2cnc3ccccc3c2)C=CC(C)=CC1CO (stereo not drawn) ; system: Haemophilus Influenzae
Reply: 6.25

Source of measurements: patent US7247617B2
